These measurements were taken from patent US20200164085A1.

Molecular target: T1, human CD74 (human, UniProt P04233 1-296)
T1 sequence (looked up): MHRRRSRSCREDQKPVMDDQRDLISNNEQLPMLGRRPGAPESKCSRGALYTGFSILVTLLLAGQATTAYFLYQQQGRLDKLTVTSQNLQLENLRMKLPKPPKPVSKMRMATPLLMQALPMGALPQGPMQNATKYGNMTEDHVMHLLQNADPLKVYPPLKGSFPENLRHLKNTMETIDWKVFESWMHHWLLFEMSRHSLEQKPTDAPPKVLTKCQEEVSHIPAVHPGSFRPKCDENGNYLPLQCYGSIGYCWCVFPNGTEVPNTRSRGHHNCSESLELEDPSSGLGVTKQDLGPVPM
Assay: cell-based or functional assay
TEST READOUT: Emax, GILZ mRNA, HUT-78 cells
The response must contain the number and no unit.

Consider the reported Emax, GILZ mRNA, HUT-78 cells for these binders:
1) ADC 12-5 (anti-hCD74 (LL1) conjugated to Linker 2-7) (antibody, human IgG1, kappa, V domains shown, position 121 is para-azido phenylalanine (pAzF), conjugated to dexamethasone drug-linker 2-7) VH: QVQLQQSGSELKKPGASVKVSCKASGYTFTNYGVNWIKQAPGQGLQWMGWINPNTGEPTFDDDFKGRFAFSLDTSVSTAYLQISSLKADDTAVYFCSRSRGKNEAWFAYWGQGSLVTVSS VL: DIQLTQSPLSLPVTLGQPASISCRSSQSLVHRNGNTYLHWFQQRPGQSPRLLIYTVSNRFSGVPDRFSGSGSGTDFTLKISRVEAEDVGVYFCSQSSHVPPTFGAGTRLEIKR; 4.13
2) ADC 12-9 (anti-hCD74 (LL1) conjugated to Linker 6-2) (antibody, human IgG1, kappa, V domains shown, position 121 is para-azido phenylalanine (pAzF), conjugated to dexamethasone drug-linker 6-2) VH: QVQLQQSGSELKKPGASVKVSCKASGYTFTNYGVNWIKQAPGQGLQWMGWINPNTGEPTFDDDFKGRFAFSLDTSVSTAYLQISSLKADDTAVYFCSRSRGKNEAWFAYWGQGSLVTVSS VL: DIQLTQSPLSLPVTLGQPASISCRSSQSLVHRNGNTYLHWFQQRPGQSPRLLIYTVSNRFSGVPDRFSGSGSGTDFTLKISRVEAEDVGVYFCSQSSHVPPTFGAGTRLEIKR; 2.55

Next, consider the following binder.
Query :: Quick one: Emax, GILZ mRNA, HUT-78 cells for ADC 12-10 (anti-hCD74 (LL1) conjugated to Linker 9-4) (antibody, human IgG1, kappa, V domains shown, position 121 is para-azido phenylalanine (pAzF), conjugated to budesonide drug-linker 9-4) VH: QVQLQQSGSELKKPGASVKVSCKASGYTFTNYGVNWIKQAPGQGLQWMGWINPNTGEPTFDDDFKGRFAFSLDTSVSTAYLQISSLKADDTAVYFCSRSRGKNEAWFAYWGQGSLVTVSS VL: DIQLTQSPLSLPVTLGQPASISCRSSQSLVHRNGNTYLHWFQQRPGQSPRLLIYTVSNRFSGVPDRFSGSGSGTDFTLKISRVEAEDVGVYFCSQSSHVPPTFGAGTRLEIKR ?
Result :: 6.47
